Each entry below carries its reported TGI.
# Tested on: RPMI-8226 leukemia
# test: NCI tumour cell line growth inhibition, 48 h
endpoint name: TGI

In [3]: df
Out[3]:
                                   molecule     measured_target  endpoint_result
0  O=c1[nH]c2cc(Cl)ccc2nc1/C(=N\Nc1ccccc1)C(O)c1ccc2c(c1)OCO2 (configuration not stated)  RPMI-8226 leukemia         > 100 µM
1  O=C(/C=C/c1ccc(-c2ccccc2)cc1)NCc1ccc(C(=O)NCCc2ccccc2)cc1  RPMI-8226 leukemia         > 100 µM
2  COC1OC2COC(=O)c3cc(O)c(O)c(O)c3-c3c(cc(O)c(O)c3O)C(=O)OC2C(O)C1O (configuration not stated)  RPMI-8226 leukemia         > 100 µM
3  CC(C)=C[C@@H]1C[C@H](C)[C@H]2CC[C@H](C)c3c(O)c(OC4OC(C)C(O)C(O)C4O)c(C)c1c32 (some centres not stated)  RPMI-8226 leukemia          27.6 µM
4  O=C(Nc1cccc(-n2ccc3c(NC(=O)c4ccccc4)ncnc32)c1)Nc1ccc(Cl)c(C(F)(F)F)c1  RPMI-8226 leukemia           2.8 µM
5                COc1cccc(NC(=O)CC(=O)NN)c1  RPMI-8226 leukemia         > 100 µM
6                O=C(NNC(=O)c1ccco1)c1ccco1  RPMI-8226 leukemia         > 100 µM
